B1: Pistol ribozyme (parent)
chain: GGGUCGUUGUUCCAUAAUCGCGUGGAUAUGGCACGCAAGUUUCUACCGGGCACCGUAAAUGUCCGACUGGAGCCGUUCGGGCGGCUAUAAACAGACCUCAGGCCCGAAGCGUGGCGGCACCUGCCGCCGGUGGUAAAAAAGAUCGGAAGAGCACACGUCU

Variants of: B1
measurement-description: aptazyme ON/OFF ratio, guanine; higher = stronger switching; co-transcriptional cleavage with and without guanine
Reported aptazyme ON/OFF ratio values follow for various variants
Could you respond with only the numeric value?

// below: answered variants
[
  {
    "variant-key": "U7C U8C U10G C12G",
    "measured-value": 1.12
  },
  {
    "variant-key": "U8G G9C U10G C12G C13G",
    "measured-value": 1.08
  }
]

Can you share its aptazyme ON/OFF ratio? I mean this variant: U7A U8A U10A U11C C12A C13A
1.04

One more variant: U7A U8G U10G C13U
1.55

Numbers sourced from the RNAGym collection of RNA variant scans (doi:10.1021/acssynbio.7b00057).
